Where do these numbers come from? They come from PubChem BioAssay (NCI).

System: HOP-62 NSCLC
test: NCI-60 one-dose screen, 48 h (100 = growth as untreated, 0 = no growth, -100 = all killed)
assay-conditions: 10 µM unless noted
The panel holds about 83,000 compounds, 20% with a hit somewhere; the sample as a whole holds those more often.
metric-name: growth (%)
Reply with just the number (in %).

Lab note: need growth with HOP-62 NSCLC for entry O=C1NC(SCc2ccc(F)cc2)=N/C1=C/c1cccc(OCc2ccc(Cl)cc2)c1 , please look it up.
45.9

Likewise for C=C(C)[C@@H]1CC[C@]2(C(=O)n3ccnc3)CC[C@]3(C)[C@H](CC[C@@H]4[C@@]5(C)CCCNC(C)(C)[C@@H]5CC[C@]43C)[C@@H]12 ?
66.3

Next compound up: COc1cc(C)ccc1Oc1nc(Nc2ccc(N3CCOCC3)cc2)ncc1N=Cc1cc(C(F)(F)F)cc(C(F)(F)F)c1
61.1

Check C=C1C(=O)O[C@H]2[C@H]1CC/C(COC(=O)c1c[nH]c3ccccc13)=C\CC[C@@]1(C)O[C@@H]21 too.
-43.3

// same read-out, input: CN(C)C(CNc1oc(-c2cccc3ccccc23)nc1C#N)c1ccco1 (stereo not given)
94.9

Next compound: COc1ccc(C2CC(c3ccc(OC)cc3O)=NN2c2ccc(S(N)(=O)=O)cc2)cc1 (stereo not given)
83.2

Consider next the compound O=C(Nc1cc(=O)[nH]c(=O)[nH]1)C(Cl)Cl in the same way.
106

Subsequent entry: COc1ccc2cc(/C=C3\N=C(c4cc(OC)c(OC)c(OC)c4)OC3=O)c(OC)nc2c1
88.9

// same read-out, input: C[C@H](Oc1cc(-c2cnn(C3CCNCC3)c2)cnc1N)c1c(Cl)ccc(F)c1Cl
66.5

Try the compound N#Cc1ccc(C2C3=C(CCCC3=O)OC3=C2C(=O)c2ccccc2C3=O)cc1 (stereo not given)
111

* * *

Parameter growth: see the listing below.
Tested on: RXF 393 renal
test: NCI-60 one-dose screen, 48 h (100 = growth as untreated, 0 = no growth, -100 = all killed)
assay-conditions: 10 µM unless noted
The panel holds about 83,000 compounds, 20% with a hit somewhere; the sample as a whole holds those more often.
Number in %, nothing else.

INSERT INTO assay_data (compound, result_number) VALUES
  ('Cc1ccc(SC2c3ccc(C)cc3Oc3nc(N)c(C#N)c(N)c32)cc1 (stereo not given)', 53.9),
  ('CSc1nc(-c2cccs2)c2c(N)[nH]nc2n1', 114);

Recorded growth for COC(=O)/C=C/c1cc(OC(C)=O)c2c(c1)C(C(=O)OC)C(c1ccc(OC(C)=O)c(OC(C)=O)c1)O2 (stereo not given) with RXF 393 renal, please?
28.7

One more compound: COC(=O)c1ccc(NC(=O)CSc2nc(-c3ccc(F)cc3)nc3ccccc23)cc1
109

Param item: CCOC(=O)c1c(C)nc2c(c1N)/C(=C/c1ccc[nH]1)C(=O)N2Cc1ccc(C(F)(F)F)cc1
48.6

Quick one: Cc1ccc(-c2nc(C#N)c(S(=O)(=O)N(C)CCO)o2)cc1
107

Further, for COc1cc(N=Nc2cc(S(=O)(=O)O)cc3cc(S(=O)(=O)O)cc(O)c23)c(C)cc1N=Nc1c(S(=O)(=O)O)cc2cc(Nc3ccccc3)ccc2c1O ?
129

Item: CC(C)C[C@H](C(=O)O)N(C)C(=O)[C@@H]1CCCN1C(=O)[C@H](C)OC(=O)[C@H](CCC(N)=O)NC(=O)[C@@H]1CCC(=O)N1
135

Next compound up: COc1cc(NC(=O)COc2cc(C)nc3ccc(OC)cc23)cc(OC)c1
94.2

Also check Cc1cc(C)c2nc(Nc3nc(C)c(C)c(=O)[nH]3)nc(C)c2c1
-32.4
